pIC50: −log10 of the molar value. Square brackets hold non-standard residues; d marks the D form. Peptide text beside a SMILES is read from it. dCha = N[C@H](CC1CCCCC1)C(=O)O; dNle = CCCC[C@@H](N)C(=O)O
// values below are pIC50; system is κ receptor (Cavia porcellus, UniProt P41144)
Sequence (P41144 whole entry): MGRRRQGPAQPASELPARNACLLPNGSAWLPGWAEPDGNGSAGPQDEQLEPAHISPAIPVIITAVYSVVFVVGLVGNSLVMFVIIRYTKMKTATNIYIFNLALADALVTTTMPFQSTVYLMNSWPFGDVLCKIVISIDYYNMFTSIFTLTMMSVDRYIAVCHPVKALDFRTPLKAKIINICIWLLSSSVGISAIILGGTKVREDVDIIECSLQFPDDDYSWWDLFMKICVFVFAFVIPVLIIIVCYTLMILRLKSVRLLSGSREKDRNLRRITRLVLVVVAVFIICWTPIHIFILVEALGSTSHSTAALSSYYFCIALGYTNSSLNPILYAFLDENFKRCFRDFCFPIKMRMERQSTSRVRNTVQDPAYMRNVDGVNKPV
outcomeMeasure: pIC50

compound="N[C@H](Cc1ccccc1)C(=O)N[C@H](Cc1ccccc1)C(=O)N[C@@H](Cc1c[nH]c2ccccc12)C(=O)N[C@H](CC1CCCCC1)C(=O)O [SEQ ID NO. 15, (D)Phe-(D)Phe-Trp-(D)ChAla] (H-[dF][dF]W[dCha]-OH)" studysystem="κ receptor (Cavia porcellus, UniProt P41144)" testresult=4.28
compound="CC[C@@H](C)[C@@H](NC(=O)[C@@H](Cc1ccccc1)NC(=O)[C@H](N)Cc1ccccc1)C(=O)N[C@H](CCCNC(=N)N)C(=O)O [SEQ ID NO. 16, (D)Phe-(D)Phe-(D)Ile-(D)Arg]" studysystem="κ receptor (Cavia porcellus, UniProt P41144)" testresult=8.70
compound="CCCC[C@@H](N)C(=O)N[C@H](Cc1ccccc1)C(=O)N[C@H](CCCC)C(=O)N[C@H](CCCNC(=N)N)C(=O)O [SEQ ID NO. 23, (D)Nle-(D)Phe-(D)Nle-(D)Arg] (H-[dNle][dF][dNle][dR]-OH)" studysystem="κ receptor (Cavia porcellus, UniProt P41144)" testresult=8.00
compound="CCCC[C@@H](N)C(=O)N[C@H](Cc1ccccc1)C(=O)N[C@@H](Cc1c[nH]c2ccccc12)C(=O)N[C@H](CCCNC(=N)N)C(=O)O [SEQ ID NO. 24, (D)Nle-(D)Phe-Trp(D)Arg] (H-[dNle][dF]W[dR]-OH)" studysystem="κ receptor (Cavia porcellus, UniProt P41144)" testresult=4.96
compound="CCCC[C@@H](N)C(=O)N[C@H](Cc1ccccc1)C(=O)N[C@@H](Cc1c[nH]c2ccccc12)C(=O)N[C@H](CC1CCCCC1)C(=O)O [SEQ ID NO. 25, (D)Nle-(D)Phe-Trp-(D)ChAla] (H-[dNle][dF]W[dCha]-OH)" studysystem="κ receptor (Cavia porcellus, UniProt P41144)" testresult=4.37
compound="CCCC[C@@H](N)C(=O)N[C@H](Cc1ccccc1)C(=O)N[C@@H](C(=O)N[C@H](CC1CCCCC1)C(=O)O)[C@H](C)CC [SEQ ID NO. 27, (D)Nle-(D)Phe-(D)Ile-(D)ChAla] (H-[dNle][dF][dI][dCha]-OH)" studysystem="κ receptor (Cavia porcellus, UniProt P41144)" testresult=5.84
